# Test system: PPARg:RXRa (NR concentration 180 nM, RXRa partner concentration 90 nM)
# ASSAY: PBM binding z-score (relative to random genomic background probes); higher = stronger binding; sequences stand for … in GC…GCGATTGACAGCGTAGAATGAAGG
MEASURED ENDPOINT: PBM binding z-score
The answer should be written as a number, with no unit following it.

# annotated cases, reported PBM binding z-score shown
* CCTATTAGTTGACCATAAGGGCGACCGAAGCTCG | 0.29
* TAGCCTAAGTCAGATCGGGCCAGTATACGCTATA | 0.157
* GCATATAGGTAATACAAGGTGAAAGACCGATTGT | 1.65
* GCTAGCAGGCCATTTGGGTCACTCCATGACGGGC | 0.542
* CAAGCTAGGTCACAGAGGTCAAAGTCCGTGCGTA | 6.86

As a next step, examine the sequence that follows.
// lookup PBM binding z-score | system=PPARg:RXRa (NR concentration 180 nM, RXRa partner concentration 90 nM) | key= `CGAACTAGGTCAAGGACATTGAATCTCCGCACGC`
7.54

====

# System: LXRb homodimer (NR concentration 270 nM)
# ASSAY: PBM binding z-score (relative to random genomic background probes); higher = stronger binding; sequences stand for … in GC…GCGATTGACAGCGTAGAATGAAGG
MEASURED ENDPOINT: PBM binding z-score
The answer should be written as a number, with no unit following it.

# annotated cases, reported PBM binding z-score shown
• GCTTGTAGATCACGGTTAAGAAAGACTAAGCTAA = -0.584
• ATCGAAAGGTCGTGAGGTGAGTAAACAGAAAGGC = 0.648
• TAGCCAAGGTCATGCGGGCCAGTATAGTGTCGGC = 0.499
• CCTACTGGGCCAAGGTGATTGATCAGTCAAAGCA = -1.14
• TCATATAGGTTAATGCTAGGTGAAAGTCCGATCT = 0.557
• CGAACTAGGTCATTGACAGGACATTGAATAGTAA = 0.107
• TCTTGTAGATCAACAGGTTAAGAAAGCTGGCCAA = -0.124
• TAGCCTAGGTCACTCAGGGGCCAGTATAGAAAGC = -0.123

// lookup PBM binding z-score | system=LXRb homodimer (NR concentration 270 nM) | key= `ATATGTAGGTTAGCTGGGGTCACTCAGACTAGGC`
1.05

Ok, now `TCATGTAGATCAAGCAGGTTAAGAAAGCCTGAGT`
-0.523

Ok, now `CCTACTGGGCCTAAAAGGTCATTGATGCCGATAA`
0.491

Ok, now `TGTCAAAGTTCAAACGTAACGTAAGTATCCACAC`
3

Ok, now `TCTAGTTGGTCAAAGATCACACACTCGAAATGCG`
0.389

Ok, now `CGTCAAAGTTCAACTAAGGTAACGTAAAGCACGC`
1.99

Ok, now `GCAGACAGGTGAAACGGAGGTAACTCAGGGTGGC`
-0.922

Ok, now `CCTCGGAGGACAACAGGAGTTCAGAGCTGCCAGA`
-0.822

Ok, now `TGTCAAAGTTCAAAGGTAATGTAAGTATCCACAC`
1.91

Ok, now `GCTGCTAGGTCAGGTTGGTGAGCTAACGGGTACG`
-0.485

Ok, now `TCTGCTAAGTCAACGATGGTCAGCTAATCTGCTA`
-0.721

Ok, now `GGAACGCGGGCAAGTTGATAGCAGAGTTTGATGG`
-0.732

Ok, now `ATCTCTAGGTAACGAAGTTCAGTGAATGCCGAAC`
0.414

Ok, now `TGAATGAGCTTAAAGATCAGGGAACGTGGCGTCG`
-0.626

Ok, now `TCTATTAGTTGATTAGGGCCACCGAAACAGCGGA`
0.614

Ok, now `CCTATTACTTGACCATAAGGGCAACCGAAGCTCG`
1.31

Ok, now `ATATGTAGATTAGCTGGGGTCATTCAGACTAGGC`
1.51

Ok, now `AATACAGGGGCACTAGGCCAGAGTAGGTACGAAT`
-0.000441

====

In this section we review reported PBM binding z-score values for a set of sequences.
# System: PPARg DBDmut IVT, anti-PPARg (DBD mutation: PPARg1 K132A/R137A, NR concentration 270 nM)
# ASSAY: PBM binding z-score (relative to random genomic background probes); higher = stronger binding; sequences stand for … in GC…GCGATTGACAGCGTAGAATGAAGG
The answer should be written as a number, with no unit following it.

# annotated cases, reported PBM binding z-score shown
* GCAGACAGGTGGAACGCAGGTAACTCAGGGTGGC | -1.2
* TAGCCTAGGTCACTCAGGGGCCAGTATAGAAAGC | 0.141
* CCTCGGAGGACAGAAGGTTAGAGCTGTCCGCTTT | -2.87
* CCTCGGAGGACAGAAGCTCAGAGCTGTCCGCTTT | -2.47
* ATATGTAGGTTAGCTGGGGTCATTTAGACTAGGC | 2.06

As a next step, examine the sequence that follows.
What measured PBM binding z-score goes with `TCTTGTAGATCAGCTGGTTAAGAAAGCTGGCCAA` ?
-0.0877

====

# Test system: LXRa homodimer (NR concentration 270 nM)
# ASSAY: PBM binding z-score (relative to random genomic background probes); higher = stronger binding; sequences stand for … in GC…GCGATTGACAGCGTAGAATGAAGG
MEASURED ENDPOINT: PBM binding z-score
The answer should be written as a number, with no unit following it.

# annotated cases, reported PBM binding z-score shown
• TCTGCTAGGTCAACGATGGTCAGCTGATCTGCTA = -0.222
• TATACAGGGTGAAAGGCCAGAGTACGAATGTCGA = -0.157
• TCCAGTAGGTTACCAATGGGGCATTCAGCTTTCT = -0.513
• CGAACTAGGTCATTGACATGACAGTGAATAGTAA = 0.582
• ACTAGTTGGTCAGCTGAGGTCCCACACAATTCGG = -0.16
• GCTCGGAGGACAAGGTTAGAGCTTTGTCCGTAGA = -1.07

// lookup PBM binding z-score | system=LXRa homodimer (NR concentration 270 nM) | key= `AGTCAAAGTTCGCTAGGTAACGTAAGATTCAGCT`
-0.0137

Ok, now `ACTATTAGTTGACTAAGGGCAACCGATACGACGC`
0.168

====

# Tested on: VDR:RXRa (NR concentration 270 nM, RXRa partner concentration 90 nM)
# ASSAY: PBM binding z-score (relative to random genomic background probes); higher = stronger binding; sequences stand for … in GC…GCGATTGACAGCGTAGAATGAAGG
MEASURED ENDPOINT: PBM binding z-score
The answer should be written as a number, with no unit following it.

# annotated cases, reported PBM binding z-score shown
* CGTCCAAGGTCAAAGGTCAGTGAGGAGATGACGG | 6.92
* CCCGACAGGTGAAAGGTAACTCAGTCTGGTACGC | 0.836
* GCGGCTAGGTCAGGTTGGTCAGCTAACGGGTACG | 0.482
* CCTACTGGGCCATCAGGTCAGTGATATCAACGTT | 0.21
* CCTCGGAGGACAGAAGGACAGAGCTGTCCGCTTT | -0.413

What measured PBM binding z-score goes with `CCTTACGGGTCACGAGGTTATAGCGCGACGAGCG` ?
4.99

Ok, now `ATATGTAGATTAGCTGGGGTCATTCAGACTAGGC`
4.91

Ok, now `GCGACTGGGGCATCAGAAGGTTACCATAACTTAA`
0.169

Ok, now `ATCTCTAGGTAACAAGTTCAGTTAAAGAGAGGAC`
2.23

Ok, now `ATTCAAAGTTCATCTAGGTAACGTAAGATATGCT`
4.93

Ok, now `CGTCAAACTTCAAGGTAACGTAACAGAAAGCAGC`
0.0642

Ok, now `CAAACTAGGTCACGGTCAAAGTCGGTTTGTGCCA`
3.33

Ok, now `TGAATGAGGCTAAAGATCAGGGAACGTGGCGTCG`
-0.503

Ok, now `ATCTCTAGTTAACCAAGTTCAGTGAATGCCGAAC`
2.46

Ok, now `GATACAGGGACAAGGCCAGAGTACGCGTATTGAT`
-0.523

Ok, now `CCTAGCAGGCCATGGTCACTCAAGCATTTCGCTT`
-0.485

Ok, now `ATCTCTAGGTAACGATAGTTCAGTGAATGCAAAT`
0.643

Ok, now `TCTCGGAGGACACGAAAGGTCAAAGCTCGACATC`
4.67

Ok, now `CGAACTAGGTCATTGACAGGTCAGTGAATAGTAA`
3.9

Ok, now `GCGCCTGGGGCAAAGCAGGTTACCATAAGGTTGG`
-0.092

Ok, now `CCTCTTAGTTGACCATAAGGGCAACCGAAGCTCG`
0.969

Ok, now `ATCGAAAGGTCGTAAGGTGAGTATACAGAAAGGC`
3.26

Ok, now `GGAACGAGGGGATTCGAGTTGATAGCATGGCGAT`
0.173

Ok, now `AGAATGAGGTTACCAAAGATCCGGGAAACGCTTG`
1.16

Ok, now `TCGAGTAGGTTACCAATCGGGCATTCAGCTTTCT`
-0.344

Ok, now `TCATATAGGTAAATGCTAGGTGAAAGTACGATCT`
1.15
